Assay: qHTS Multiplex Assay to Identify Dual Action Probes in a Cell Model of Huntington: Aggregate Formation (GFP); note: nearly all actives have a fitted effect of over 60% in size
Conditions: PC12 HttQ103-GFP aggregates, Acumen cytometry, 40 h; series mostly up to 9.22 µM
Out of some 220,000 compounds screened, about 2,400 (1.1%) were called active. About 7% were inconclusive and are not listed. Calls come from the whole dose curve; as a rule, active = well fitted inhibition curve with a large enough effect; inconclusive = small, poorly fitted or top-dose-only effect, or effect the other way; inactive = no such curve, though single readings can be large or run the other way. The entries come from a sample that favours actives as a whole.
Valid outcomes are listed here; reply with one: y (active), n (inactive)

Reference set, count: 4
N#Cc1c(C(F)(F)F)cc(-c2cccs2)nc1N1CCCCC1: n
CCOc1ccccc1N1CN(Cc2ccccc2)CNC1=S: n
CC(C)n1cnc2c(Nc3cccc(Cl)c3)nc(N(CCO)CCCO)nc21: n
CN1CCN(S(=O)(=O)c2ccc(NC(=O)c3ccco3)cc2)CC1: n

// query Just curious, what result did O=C(Nc1nncs1)c1cccc(S(=O)(=O)N2CCCCC2)c1 get here?
// result n

// query Just curious, what result did OCCCNc1nccc(-c2cc(Nc3cccc(Cl)c3)ncn2)n1 get here?
// result y

// query Just curious, what result did CCNC(=S)N1CCN(CCN=CC2=C(O)CC(C)(C)CC2=O)CC1 get here?
// result n

// query Just curious, what result did Cc1[nH]n(-c2ccccc2)c(=O)c1/C=N/NC(=O)c1ccoc1C get here?
// result y

// query Just curious, what result did O=c1[nH]n2c(-c3ccccc3)nc(O)c2c2ccccc12 get here?
// result n

// query Just curious, what result did CC(C)Cc1ccc(S(=O)(=O)N2CCN(C(=O)c3ccco3)CC2)cc1 get here?
// result y

// query Just curious, what result did NCCCCC(N)C(=O)O (centres undefined) get here?
// result n

// query Just curious, what result did CC1(C)CC(=O)c2ccc(O)cc2O1 get here?
// result n

// query Just curious, what result did Fc1ccccc1/C=N/n1c(-c2cccnc2)n[nH]c1=S get here?
// result n

// query Just curious, what result did CCOC(=O)CSc1nnc(NC(=O)c2cccc(S(=O)(=O)N3CCCCC3)c2)s1 get here?
// result n

// query Just curious, what result did Cn1c(=O)n(C)c(=O)n(CC(=O)N2CCCCC2)c1=O get here?
// result y

// query Just curious, what result did COc1cccc2c(=O)n(CC(=O)N3CCCCCC3)ccc12 get here?
// result n

// query Just curious, what result did Brc1ccc2ncnc(NCc3cccnc3)c2c1 get here?
// result y

// query Just curious, what result did CCNC(=S)N1CCN(C(=O)c2ccco2)CC1 get here?
// result n

// query Just curious, what result did COc1ccc2c(c1)OC(O)(C(F)(F)C(F)F)CC2=O (centres undefined) get here?
// result y

// query Just curious, what result did Cc1[nH]n(-c2cccc(Cl)c2)c(=O)c1/C=N/n1c(C)nc2ccccc2c1=O get here?
// result n

// query Just curious, what result did O=C(CS(=O)(=O)c1ccc(C(F)(F)F)cn1)NNC(=O)c1ccccc1 get here?
// result n

---

Experiment: qHTS Multiplex Assay to Identify Dual Action Probes in a Cell Model of Huntington: Aggregate Formation (GFP); note: nearly all actives have a fitted effect of over 60% in size
Conditions: PC12 HttQ103-GFP aggregates, Acumen cytometry, 40 h; series mostly up to 9.22 µM
Source text: NIH Chemical Genomics Center [NCGC] NIH Molecular Libraries Probe Production centers Network [MLPCN] Assay Submitter (PI): Wei Zheng […] A stable PC12 cell line containing a gene fusion of Exon 1 of the Huntingtin gene linked to GFP under the control of the inducible ecdysone promoter were used as the cell-based model of Huntington Disease for high throughput screening. […] The cell death were quantified with a measurement of ATP content in the cells. […] 6, Detector, Aggregate quantitation by Acumen Explorer […]
Hit rate of the full screen: of about 220,000 compounds, about 2,400 (1.1%) were called active. About 7% were inconclusive and are not listed. Calls come from the whole dose curve; as a rule, active = well fitted inhibition curve with a large enough effect; inconclusive = small, poorly fitted or top-dose-only effect, or effect the other way; inactive = no such curve, though single readings can be large or run the other way. This excerpt belongs to a sample that is enriched for actives.
Valid outcomes are listed here; reply with one: label 1 (active), label 0 (inactive)

Reference set, count: 5
O=C(Nc1cccc(C(F)(F)F)c1)c1cc(Br)cc(Br)c1O: label 1
O=[N+]([O-])/C=C1\CCCCCN1: label 0
CC(=O)NC(CC(=O)Nc1nccs1)c1ccccc1 (stereo unspecified): label 0
CC[n+]1c(C)n(-c2ccccc2)c2ccc(NC(C)=O)cc21: label 1
O=C(c1ccc(=O)oc1)N1CCC(C(O)(c2ccccc2)c2ccccc2)CC1: label 0

We next turn to a different compound, shown below.
// query Just curious, what result did Brc1ccc(C2=CC(c3ccco3)n3ncnc3N2)cc1 (stereo unspecified) get here?
// result label 0
